# test: HUVEC growth inhibition – cell-based, human, primary screen (AID 575);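 note: 100% = median of untreated cell wells with 0.1% DMSO on each plate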
# setupConditions: HUVEC proliferation, CellTiter-Glo luminescence, 72 h; at 10 µM; active compounds read low
recordedEndpoint: viability (%)
Enter your answer as a number in %; do not include the unit.

| compound | measuredNumber |
| --- | --- |
| COCCN(CCOC)c1ncnc2c1cnn2-c1ccccc1 | 88.4 |
| O=C(NCCN1CCOCC1)c1ccc2c(c1)N(Cc1ccccc1F)C(=O)CS2 | 95 |
| COc1cccc(-c2nc3n(n2)C(c2ccccc2Cl)C(C(N)=O)=C(C)N3)c1 (stereo not drawn) | 74.3 |
| CCOC(=O)N1CCN(C(=O)c2cnn(-c3ccccc3)c2NC(=O)c2ccccc2F)CC1 | 98.8 |

Value lookup for viability; key = `Cc1cc2ccccc2n1CCNC(=O)C1CC1` 89.8

Here is the next compound: CN1CCc2c(sc3c2C(=O)NC(c2cccc(OC(=O)c4cccs4)c2)N3)C1 (stereo not drawn) 68

Here is the next compound: `CCOC(=O)c1ccc(NS(=O)(=O)c2ccc3c(c2)oc(=O)n3C)cc1` 118

Here is the next compound: `O=C(O)c1ccc2c(c1)C(=O)N(c1ccc(Cl)cn1)C2=O` 105

Here is the next compound: `CCOc1ccc(NC(=O)CSc2nccn2C)cc1` 82.7

Here is the next compound: `COc1ccc(NS(=O)(=O)c2ccc(NC(C)=O)cc2)cc1OC` 83.5
